These data points were gathered from the supplement of paper PMC10266784.

B1: library; numbered along this chain (parent)
chain: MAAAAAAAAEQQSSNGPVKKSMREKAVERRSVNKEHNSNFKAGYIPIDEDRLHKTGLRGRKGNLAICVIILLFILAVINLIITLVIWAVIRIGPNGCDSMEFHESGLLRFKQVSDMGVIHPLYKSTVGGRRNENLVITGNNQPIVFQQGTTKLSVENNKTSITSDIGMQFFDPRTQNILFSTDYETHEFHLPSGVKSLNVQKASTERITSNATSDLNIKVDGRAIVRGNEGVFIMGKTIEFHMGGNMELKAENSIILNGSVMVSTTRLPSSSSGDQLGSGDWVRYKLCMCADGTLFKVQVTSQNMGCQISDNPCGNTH

Variants of: B1
Test: SGCB cell-surface expression functional score (HA stain, bin4 vs bin1, normalised to synonymous) (log10 ratio); higher = more cell-surface SGCB (functional)
For each entry below, report its SGCB cell-surface expression functional score (log10) value.
Numbers only.

Reference set, count: 5
variant.description: T138W
value.reported: 0.68
//
variant.description: N199K
value.reported: 0.02
//
variant.description: E240A
value.reported: 0.93
//
variant.description: W282D
value.reported: -0.17
//
variant.description: N39L
value.reported: -0.02

// for each variant below, give its SGCB cell-surface expression functional score (log10)
1. P143R
2. L295T
3. L72E
4. F146G
5. V300A
6. D172Q

-0.34
0.03
-0.02
-0.94
-0.02
-0.19

Respectfully, I request SGCB cell-surface expression functional score (log10) for each entry included below.
1. S271D
2. D183Y
3. D221T
4. V27R
5. G129W
6. E133P
7. V85A

[-0.12, -0.53, 0.96, 0.06, -1.42, -1, 0.3]

Answer for every listed entry: what is its SGCB cell-surface expression functional score (log10)? The entries follow.
1. G149Q
2. R60H

-0.01
-0.21
